biological target: ScRvs167; assay: SPOT peptide array binding signal intensity (averaged, normalized) (arbitrary units (background-subtracted, floor 0; scale differs between SH3 domains)); higher = stronger binding of the SH3 domain to the peptide
metric: SPOT peptide array binding signal intensity

1) RLSFFFPLDPAYIRN
7.67
2) TSIEIPKRSPLRFTS
101
3) FYHRPAPKPPVTKKV
12.8
4) FPPKRKPLLRPQRSD
410
